subject of test: human URAT1 (Homo sapiens (Human), UniProt Q96S37)
Sequence (Q96S37 whole entry): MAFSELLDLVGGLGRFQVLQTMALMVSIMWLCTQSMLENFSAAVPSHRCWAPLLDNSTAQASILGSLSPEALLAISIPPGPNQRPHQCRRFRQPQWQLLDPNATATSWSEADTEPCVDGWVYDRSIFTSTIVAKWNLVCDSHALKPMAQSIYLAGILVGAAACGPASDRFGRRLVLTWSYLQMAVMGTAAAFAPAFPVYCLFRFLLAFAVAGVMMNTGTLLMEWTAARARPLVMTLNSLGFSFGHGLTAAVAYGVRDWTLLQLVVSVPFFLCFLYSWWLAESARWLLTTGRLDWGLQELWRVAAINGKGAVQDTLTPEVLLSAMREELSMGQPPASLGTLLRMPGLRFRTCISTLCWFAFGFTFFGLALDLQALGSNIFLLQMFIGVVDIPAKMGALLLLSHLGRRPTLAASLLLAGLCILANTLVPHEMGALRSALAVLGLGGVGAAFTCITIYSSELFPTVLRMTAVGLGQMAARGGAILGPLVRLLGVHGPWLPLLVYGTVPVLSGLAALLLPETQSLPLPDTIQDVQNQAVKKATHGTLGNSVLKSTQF
test: Test for uric acid transport inhibition using human URAT1 expression cell
condition parameters: human URAT1 stable expression CHO cell; 14C-labeled uric acid 38 μM final concentration; incorporation at room temperature for 5 minutes; 100% window defined with benzbromarone 100 μM; read-out: URAT1 Inhibitory Activity (IC50)
property: IC50 (nM)
Answers are plain numbers, in nM.

smiles representation | subject of test | value unit | value reported
Cc1cccc(C)c1Cn1cc(C(C)C)c2ccc(C(=O)O)cc21 | human URAT1 (Homo sapiens (Human), UniProt Q96S37) | nM | 71
Cc1nn(Cc2c(Cl)cccc2C2CC2)c2cc(CCC(=O)O)ccc12 | human URAT1 (Homo sapiens (Human), UniProt Q96S37) | nM | 17
Cc1nn(Cc2c(Cl)cccc2Cl)c2cc(C(=O)CCC(=O)O)ccc12 | human URAT1 (Homo sapiens (Human), UniProt Q96S37) | nM | 68
Cc1cn(Cc2cc3c(cc2Cl)OCO3)c2cc(CC(=O)O)ccc12 | human URAT1 (Homo sapiens (Human), UniProt Q96S37) | nM | 98

For every listed record, write down its IC50.
1. CCc1nn(Cc2c(Cl)cccc2Cl)c2cc(CCC(=O)O)ccc12
2. Cc1cn(Cc2c(Cl)cccc2Cl)c2cc(CC(=O)O)ccc12
3. Cc1nn(Cc2c(Cl)cccc2Cl)c2cc(CCc3nnn[nH]3)ccc12
4. Cc1nn(Cc2csc3ccc(Cl)cc23)c2cc(CC(=O)O)ccc12
5. Cc1nn(Cc2cccc(Cl)c2Cl)c2cc(CC(=O)O)ccc12

Output line:
1. 26
2. 15
3. 23
4. 55
5. 41
